Target System: Pfs48/45 D3 (Plasmodium falciparum 3D7, UniProt Q8I6T1)
Sequence (Q8I6T1 287-428): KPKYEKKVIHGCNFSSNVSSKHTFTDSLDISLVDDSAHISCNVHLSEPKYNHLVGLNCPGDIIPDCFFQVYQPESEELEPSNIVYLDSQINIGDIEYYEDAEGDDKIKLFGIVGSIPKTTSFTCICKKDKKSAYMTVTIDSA
Measurement Notes: ELISA
Details: both partners purified
Result Type: binding result

# Binder, Endpoint Value
measured = [
    ("RUPA-44 (antibody, V domains shown, human IgG1; source: recombinant human IgG1, 293T (Protein A purified) or GenScript) VH: QLQLQESGPGLVKPSETLSLTCTVSGGSISRSPYYWGWIRQPPGKGLEWFGSIYNNGSTYYNPPLKSRLTISVDTSKNQFSLKLSSVTAADTAVYYCARHGGSTGMKVVVIAPPDYWGQGTLVTVSS VL: DIQMTQSPATLSASVGDRVTITCRASQSISSWLAWYQQKPGEAPKLLIYKASSLQSGVPSRFSGSGSGTKFSLTISSLQPDDFATFYCQQYHSYPYTFGQGTKLEIK", "binds"),
    ("RUPA-54 (antibody, V domains shown, human IgG1; source: recombinant human IgG1, 293T (Protein A purified) or GenScript) VH: QVQLVESGGGVVQPGRSLRLSCTASGFTFRSYGIHWVRQAPGKGLQWVAFISYDGRNKYYADSVKGRFTISRDNSKNTLYLQMSGLRADDTAVYYCAKDSDNDCTATSCYTVSWGQGTLVTVSS VL: SYELTQPPSVSVSPGQTARITCSGDALPKKYAYWYQQKSGQAPVLVIYEDKKRPSGIPERFSGSSSGTMATLTISGAQVEDEADYYCYSTDSRTDHGGIFGGGTKLTVL", "binds"),
    ("RUPA-47 (antibody, V domains shown, human IgG1; source: recombinant human IgG1, 293T (Protein A purified) or GenScript) VH: QVQLVQSGAEVKKPGASVKLSCTASGYTFTNFGITWVRQAPGQGLEWMAWISVYSGDTDYAQRFQGRVTMTTDTSTRTAYMEMRSLSFDDTAVYYCVRGGRDSPILGGYWGQGTLVTVSS VL: EIVLTQSPGTLSLSPGERVTLSCRASQSVRSMYLAWYQQKPGQAPRLLIHGASIRATGIPDRFSGSGSGTDFTLTISRLEREDFAVYYCHQYGSSPLTFGGGTKVESK", "binds"),
]
